Test system: OVCAR-3
testProtocol: NCI tumour cell line growth inhibition, 48 h
Activity calls are given as the source filed them. Cut-off read from the data, not from the text of the source: active = GI50 up to about 1.1 µM and inactive = higher. Non-standard residues stand in square brackets, D forms with d. Residues, ends and D or L forms follow the SMILES beside them.
GI50 for assorted compounds

Use these answered entries as a reference point.
CC(C)C[C@H](NC(=O)[C@H](CC(C)C)NC(=O)[C@@H](Cc1c[nH]c2ccccc12)NC(=O)[C@H](Cc1ccccc1)NC(=O)[C@@H](Cc1c[nH]c2ccccc12)NC(=O)[C@H](CCC(N)=O)NC(=O)[C@H](CCC(N)=O)NC(=O)[C@H]1CCCN1C(=O)[C@@H](N)CCCCN)C(N)=O (H-K[dP]QQ[dW]F[dW]LL-NH2) = > 100 µM (inactive)
CC(=O)c1cnc2oc3ccc(O)cc3c2c1-c1ccccc1 = 17.3 µM (inactive)

Output GI50 of `CSC1=NS(=O)(=O)c2cc(C(=O)NN(C)C(=O)c3cc4c(cc3Cl)SC(SC)=NS4(=O)=O)c(Cl)cc2S1`
> 10 µM (inactive)

Measured values drawn from ChEMBL document CHEMBL1201862 for this set.
